Protocol Summary: in vivo
Study Conditions: nude, mouse
Attribute Measured: MTD (mg/kg)
Kindly provide the numeric value in mg/kg only, without the unit symbol.

Look at this compound and give its reported MTD. O=P1(N(CCCl)CCCl)NCCCO1 (stereo not drawn) [Cyclophosphamide, cyclophosphamide]
100

Would you mind telling me what MTD value was observed for `CC(=O)O[C@H]1C(=O)[C@@]2(C)[C@H]([C@H](OC(=O)c3ccccc3)[C@]3(O)C[C@H](OC(=O)[C@H](O)[C@@H](NC(=O)c4ccccc4)c4ccccc4)C(C)=C1C3(C)C)[C@]1(OC(C)=O)CO[C@@H]1C[C@@H]2O` ?
35

# query: MTD of entry `CC(=O)O[C@@]12CO[C@@H]1C[C@H](O)[C@@]1(C)C(=O)[C@H](O)C3=C(C)[C@@H](OC(=O)[C@H](O)[C@@H](NC(=O)OC(C)(C)C)c4ccccc4)C[C@@](O)([C@@H](OC(=O)c4ccccc4)[C@H]21)C3(C)C`
60
